- TARGET_OR_TEST_SYSTEM: OASS-A (Salmonella typhimurium, UniProt P0A1E3)
- Sequence (P0A1E3 whole entry): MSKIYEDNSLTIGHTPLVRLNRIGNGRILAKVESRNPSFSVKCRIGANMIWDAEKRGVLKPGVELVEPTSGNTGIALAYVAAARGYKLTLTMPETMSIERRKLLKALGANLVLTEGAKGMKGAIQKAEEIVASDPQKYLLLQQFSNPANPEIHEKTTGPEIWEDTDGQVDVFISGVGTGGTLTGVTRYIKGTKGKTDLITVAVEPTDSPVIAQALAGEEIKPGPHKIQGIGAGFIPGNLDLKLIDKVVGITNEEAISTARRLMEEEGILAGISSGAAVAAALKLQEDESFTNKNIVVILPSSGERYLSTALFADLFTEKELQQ
pKd: −log10 of the molar value.
# reported pKd; entries follow
MEASURED_METRIC: pKd

O=C(O)C1CC=CCC1C(=O)Nc1nncs1 (stereo not drawn)
4.09
CC(C)CC(NC(=O)c1ccco1)C(=O)O (stereo not drawn)
3.25

###

- TARGET_OR_TEST_SYSTEM: OASS-A (Salmonella typhimurium, UniProt P0A1E3)
pKd: −log10 of the molar value.
Measured pKd accompanies every entry in the list below.
MEASURED_METRIC: pKd

O=C(NC(Cc1ccccc1)C(=O)O)c1ccco1 (stereo not shown) [Compound 9]
2.89
O=C(O)C1CC=CCC1C(=O)NCc1ccncc1 (stereo not shown) [Compound 6]
3.55
O=C(O)/C=C(/Cl)CC(=O)O [Compound 13]
4.54
CC(C)C(NS(=O)(=O)c1cccs1)C(=O)O (stereo not shown) [Compound 3]
4.02
O=C(O)CC(C(=O)O)c1ccccc1 (stereo not shown) [Compound 4]
3.99
O=C(O)C1CCCCN1S(=O)(=O)c1cccc([N+](=O)[O-])c1 (stereo not shown) [Compound 5]
3.66
CC1=C(C(=O)O)N2C(=O)C(NC(=O)c3nn(C)cc3[N+](=O)[O-])C2SC1 (stereo not shown) [Compound 8]
3.14
